# ASSAY REMARKS: Volume of distribution at steady state in rat at 2 mg/kg, iv
# Assay type: ADME, organism-based
# Parameters: dose 2 mg/kg, route intravenous
# CONDITION DESCRIPTION: in vivo, read-out: Vdss
MEASURED PROPERTY: Vd (L/kg)

* CN1C2=C([C@H](c3ccc(Br)cc3)n3ncnc31)[C@@H](c1ccc(Br)cc1)Oc1ccccc12 | 9.9

====

# ASSAY REMARKS: Mean residence time in rat at 2 mg/kg, iv
# Format: ADME, organism-based
# Design: dose 2 mg/kg, route intravenous
# CONDITION DESCRIPTION: in vivo
MEASURED PROPERTY: MRT (h)

• CN1C2=C([C@H](c3ccc(Br)cc3)n3ncnc31)[C@@H](c1ccc(Br)cc1)Oc1ccccc12 = 2.4
